experimental-target: human FPR2 (Homo sapiens, UniProt P25090)
Sequence (P25090 whole entry): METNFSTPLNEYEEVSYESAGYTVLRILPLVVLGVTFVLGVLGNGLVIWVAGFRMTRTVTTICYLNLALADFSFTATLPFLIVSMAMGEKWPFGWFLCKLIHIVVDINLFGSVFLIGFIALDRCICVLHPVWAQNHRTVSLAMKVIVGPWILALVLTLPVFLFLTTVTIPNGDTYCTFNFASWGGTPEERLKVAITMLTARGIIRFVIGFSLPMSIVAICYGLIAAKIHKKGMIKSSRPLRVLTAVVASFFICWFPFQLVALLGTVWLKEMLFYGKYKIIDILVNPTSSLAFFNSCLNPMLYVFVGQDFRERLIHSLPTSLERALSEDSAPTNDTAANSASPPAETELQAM
method: FPR2 cyclic adenosine monophosphate (cAMP) assay
setup-conditions: CHO cells overexpressing human FPR2; forskolin 5 μM; inhibition of cAMP production; HTRF; read-out: hFPR2 cAMP2 EC50
measured-attribute: EC50

Query: Entry COc1cc(F)c(-c2c(NC(=O)c3ccc(OC(F)F)cc3)c(=O)n(-c3cccc(-n4ccc(C)n4)n3)n2C)c(F)c1 [Example 69] has what EC50?
Response: 5 nM

Query: Entry COc1ccc(-c2c(NC(=O)c3ccc(OC(F)F)cc3)c(=O)n(-c3ncccc3Cl)n2C)c(F)c1 [Example 262] has what EC50?
Response: 25 nM

Query: Entry COc1cc(F)c(-c2c(NC(=O)c3ccc(OC(F)(F)F)cc3)c(=O)n(-c3ccccc3)n2C)c(F)c1 [Example 4] has what EC50?
Response: 8 nM

Query: Entry COc1cc(F)c(-c2c(NC(=O)c3ccc(OC(F)F)cc3)c(=O)n(-c3nc(Cl)ccc3N3CCN(C)CC3)n2C)c(F)c1 [Example 217] has what EC50?
Response: 6 nM

Query: Entry COc1cc(F)c(-c2c(NC(=O)c3ccc(OC(F)F)cc3)c(=O)n(-c3cc(OCC4(C)COC4)cc(C(F)(F)F)n3)n2C)c(F)c1 [Example 349] has what EC50?
Response: 22 nM

Query: Entry COc1cc(OC)cc(-n2c(=O)c(NC(=O)c3ccc(OC(F)F)cc3)c(-c3c(F)cc(OC)cc3F)n2C)c1 [Example 108] has what EC50?
Response: 3 nM

Query: Entry COc1cc(F)c(-c2c(NC(=O)c3ccc(OC(F)F)cc3)c(=O)n(-c3nccc(C)c3Cl)n2C)c(F)c1 [Example 180] has what EC50?
Response: 8 nM

----------
experimental-target: human FPR2 (Homo sapiens, UniProt P25090)
method: FPR2 cyclic adenosine monophosphate (cAMP) assay
setup-conditions: CHO cells overexpressing human FPR2; forskolin 5 μM; inhibition of cAMP production; HTRF; read-out: hFPR2 cAMP2 EC50
measured-attribute: EC50 (nM)
The reply should be a number in nM, with the unit left off.

Query: What reported EC50 corresponds to COc1cc(F)c(-c2c(NC(=O)c3ccc(OC(F)F)cc3)c(=O)n(-c3nc(OCC(C)(C)O)ccc3Cl)n2C)c(F)c1 [Example 298] on human FPR2 (Homo sapiens, UniProt P25090)?
Response: 14

Query: What reported EC50 corresponds to COc1cc(F)c(-c2c(NC(=O)c3ccc(OC(F)F)cc3)c(=O)n(-c3cccc(C(F)(F)F)n3)n2C)c(F)c1 [Example 156] on human FPR2 (Homo sapiens, UniProt P25090)?
Response: 15

Query: What reported EC50 corresponds to COc1cc(OCC2(CO)COC2)nc(-n2c(=O)c(NC(=O)c3ccc(OC(F)F)cc3)c(-c3c(F)cc(OC)cc3F)n2C)c1 [Example 384] on human FPR2 (Homo sapiens, UniProt P25090)?
Response: 7

Query: What reported EC50 corresponds to COc1cc(F)c(-c2c(NC(=O)c3ccc(OC(F)(F)F)cc3)c(=O)n(-c3cccc(C4CC4)n3)n2C)c(F)c1 [Example 167] on human FPR2 (Homo sapiens, UniProt P25090)?
Response: 4

Query: What reported EC50 corresponds to COc1cc(F)c(-c2c(NC(=O)c3ccc(OC(F)F)cc3)c(=O)n(-c3cc(Cl)cc(C(=O)N(C)C)c3)n2C)c(F)c1 [Example 126] on human FPR2 (Homo sapiens, UniProt P25090)?
Response: 9

Query: What reported EC50 corresponds to CCOC(=O)Cn1c(=O)c(NC(=O)c2ccc(OC(F)F)cc2)c(-c2c(F)cc(OC)cc2F)n1C [Example 21] on human FPR2 (Homo sapiens, UniProt P25090)?
Response: 140

Query: What reported EC50 corresponds to COc1cc(F)c(-c2c(NC(=O)c3ccc(OC(F)F)cc3)c(=O)n(-c3nc(NC4(C)CC4)ccc3C(F)(F)F)n2C)c(F)c1 [Example 266] on human FPR2 (Homo sapiens, UniProt P25090)?
Response: 4

Query: What reported EC50 corresponds to COc1cc(F)c(-c2c(NC(=O)c3ccc(OC(F)F)cc3)c(=O)n(-c3ccccc3Cl)n2C)c(F)c1 [Example 171] on human FPR2 (Homo sapiens, UniProt P25090)?
Response: 12

Query: What reported EC50 corresponds to COc1ccc(-c2c(NC(=O)c3ccc(OC(F)F)cc3)c(=O)n(-c3nc(Cl)ccc3C(F)(F)F)n2C)c(F)c1 [Example 295] on human FPR2 (Homo sapiens, UniProt P25090)?
Response: 1

Query: What reported EC50 corresponds to COc1cc(C2CCNCC2)nc(-n2c(=O)c(NC(=O)c3ccc(OC(F)F)cc3)c(-c3c(F)cc(OC)cc3F)n2C)c1 [Example 367] on human FPR2 (Homo sapiens, UniProt P25090)?
Response: 1

Query: What reported EC50 corresponds to COc1cc(F)c(-c2c(NC(=O)c3ccc(OC(F)F)cc3)c(=O)n(-c3cccc(F)c3C#N)n2C)c(F)c1 [Example 178] on human FPR2 (Homo sapiens, UniProt P25090)?
Response: 6

Query: What reported EC50 corresponds to COc1cc(F)c(-c2c(NC(=O)c3ccc(OC(F)F)cc3)c(=O)n(-c3cnc4ccccc4n3)n2C)c(F)c1 [Example 64] on human FPR2 (Homo sapiens, UniProt P25090)?
Response: 11

Query: What reported EC50 corresponds to COc1cc(F)c(-c2c(NC(=O)c3ccc(OC(F)F)cc3)c(=O)n(-c3cccc(OC)n3)n2C)c(F)c1 [Example 75] on human FPR2 (Homo sapiens, UniProt P25090)?
Response: 7

Query: What reported EC50 corresponds to COc1cc(F)c(-c2c(NC(=O)c3ccc(OC(F)F)cc3)c(=O)n(-c3nc(N(CCO)CCO)ccc3C(F)(F)F)n2C)c(F)c1 [Example 139] on human FPR2 (Homo sapiens, UniProt P25090)?
Response: 3

Query: What reported EC50 corresponds to COc1cc(C2CCCN(C)C2)nc(-n2c(=O)c(NC(=O)c3ccc(OC(F)F)cc3)c(-c3c(F)cc(OC)cc3F)n2C)c1 (stereo not drawn) [Example 343] on human FPR2 (Homo sapiens, UniProt P25090)?
Response: 1

Query: What reported EC50 corresponds to COc1cc(F)c(-c2c(NC(=O)c3ccc(OC(F)(F)F)cc3)c(=O)n(-c3cccnc3C#N)n2C)c(F)c1 [Example 170] on human FPR2 (Homo sapiens, UniProt P25090)?
Response: 8

Query: What reported EC50 corresponds to COc1cc(F)c(-c2c(NC(=O)c3ccc(OC(F)F)cc3)c(=O)n(-c3cccc(C(C)(C)O)n3)n2C)c(F)c1 [Example 85] on human FPR2 (Homo sapiens, UniProt P25090)?
Response: 5

Query: What reported EC50 corresponds to COc1cc(F)c(-c2c(NC(=O)c3ccc(OC(F)F)cc3)c(=O)n(-c3nc(C(F)(F)F)ccc3OC)n2C)c(F)c1 [Example 371] on human FPR2 (Homo sapiens, UniProt P25090)?
Response: 6

----------
experimental-target: human FPR2 (Homo sapiens, UniProt P25090)
method: FPR2 cyclic adenosine monophosphate (cAMP) assay
setup-conditions: CHO cells overexpressing human FPR2; forskolin 5 μM; inhibition of cAMP production; HTRF; read-out: hFPR2 cAMP2 EC50
// assign MET if EC50 falls strictly below 10 nM, else NOT MET (ties count as NOT MET)

Query: Lab note: EC50 threshold 10 nM. Does this molecule come in strictly under it? COc1cc(F)c(-c2c(NC(=O)c3ccc(OC(F)F)cc3)c(=O)n(-c3cccnc3OC)n2C)c(F)c1 [Example 330]
Response: MET

Query: Lab note: EC50 threshold 10 nM. Does this molecule come in strictly under it? COc1cc(F)c(-c2c(NC(=O)c3ccc(Cl)cc3)c(=O)n(-c3ncccc3Cl)n2C)c(F)c1 [Example 164]
Response: NOT MET

Query: Lab note: EC50 threshold 10 nM. Does this molecule come in strictly under it? COc1cc(F)c(-c2c(NC(=O)c3ccc(OC(F)F)cc3)c(=O)n(-c3cc(OCC(C)O)cc(C)n3)n2C)c(F)c1 (stereo not drawn) [Example 394]
Response: MET

Query: Lab note: EC50 threshold 10 nM. Does this molecule come in strictly under it? COc1cc(F)c(-c2c(NC(=O)c3ccc(Cl)nc3)c(=O)n(-c3ccccc3)n2C)c(F)c1 [Example 25]
Response: NOT MET

Query: Lab note: EC50 threshold 10 nM. Does this molecule come in strictly under it? COc1cc(F)c(-c2c(NC(=O)c3ccc(OC(F)F)cc3)c(=O)n(-c3cccc(CN4CCN(C)CC4)n3)n2C)c(F)c1 [Example 205]
Response: NOT MET

Query: Lab note: EC50 threshold 10 nM. Does this molecule come in strictly under it? COc1cc(F)c(-c2c(NC(=O)c3ccc(OC(F)F)cc3)c(=O)n(-c3nc(NCC4CC4)ccc3C(F)(F)F)n2C)c(F)c1 [Example 264]
Response: MET

Query: Lab note: EC50 threshold 10 nM. Does this molecule come in strictly under it? COc1cc(F)c(-c2c(NC(=O)c3ccc(OC(F)(F)F)cc3)c(=O)n(-c3cccc(-c4ccccc4)n3)n2C)c(F)c1 [Example 73]
Response: NOT MET
